// provenance: a collection of fitness landscapes (doi:10.1016/j.celrep.2020.107928)

B1: Caulobacter ParB omega fusion; a variant is named by its letters at X, in order, B8GW30 (parent)
chain: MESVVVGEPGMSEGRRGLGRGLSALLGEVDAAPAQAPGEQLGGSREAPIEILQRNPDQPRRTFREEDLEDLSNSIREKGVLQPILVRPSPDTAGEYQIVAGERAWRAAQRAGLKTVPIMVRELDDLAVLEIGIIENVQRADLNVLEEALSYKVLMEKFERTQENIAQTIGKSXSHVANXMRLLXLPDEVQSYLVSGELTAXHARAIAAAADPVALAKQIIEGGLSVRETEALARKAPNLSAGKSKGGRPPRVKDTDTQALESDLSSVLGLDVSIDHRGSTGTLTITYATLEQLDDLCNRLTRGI

- Variants of: B1
- PROTOCOL_TEXT: one-hybrid fitness for binding NBS DNA (the Noc-binding site; scaled: cognate 1, non-cognate 0); higher = stronger binding
- CONDITIONS: with NBS DNA site
Whole data set: some 81,000 sequences, median “one-hybrid fitness for binding NBS DNA” near -0.1, cut for the highest 2% near 0.36. For the sample, the highest values were picked, then their nearest neighbours and some sequences at random.
Classification field: enter Condition met for one-hybrid fitness for binding NBS DNA values not below 0.4, Condition not met for values below it.

Decide: is the reported value of one-hybrid fitness for binding NBS DNA for `QRRR` equal to or greater than 0.4?
Condition met

Please check the record `MTVA` and state if its one-hybrid fitness for binding NBS DNA is at or above 0.4.
Condition not met

// inclusive: one-hybrid fitness for binding NBS DNA at least 0.4? input: `RGTT`
Condition not met

Would you say `LAWC` shows one-hybrid fitness for binding NBS DNA at minimum 0.4?
Condition not met

# check: one-hybrid fitness for binding NBS DNA of `QMRH` is greater than or equal to 0.4
Condition met

Please check the record `QKES` and state if its one-hybrid fitness for binding NBS DNA is at or above 0.4.
Condition not met

one-hybrid fitness for binding NBS DNA >= 0.4 for `QRYR` ?
Condition met

# check: one-hybrid fitness for binding NBS DNA of `QQPY` is greater than or equal to 0.4
Condition not met

Dear colleague, could you confirm whether `QRSG` has one-hybrid fitness for binding NBS DNA at or above 0.4?
Condition not met

Exam item: decide whether the reported one-hybrid fitness for binding NBS DNA for `RCEN` is at least 0.4.
Condition not met

Hello, I need to know if `RMSD` has measured one-hybrid fitness for binding NBS DNA not below 0.4. Thanks!
Condition not met

Is one-hybrid fitness for binding NBS DNA at least 0.4? Consider `QKEH`
Condition not met

Determine whether this variant has one-hybrid fitness for binding NBS DNA no lower than 0.4: `RPMM`
Condition not met

Is one-hybrid fitness for binding NBS DNA at least 0.4? Consider `RLTD`
Condition not met

# check: one-hybrid fitness for binding NBS DNA of `QMRS` is greater than or equal to 0.4
Condition met

Check this variant for one-hybrid fitness for binding NBS DNA at or above 0.4: `RSTT`
Condition met

Decide: is the reported value of one-hybrid fitness for binding NBS DNA for `RMSS` equal to or greater than 0.4?
Condition met

Reported one-hybrid fitness for binding NBS DNA reaches at least 0.4 for `QFRT` ?
Condition not met

Decide: is the reported value of one-hybrid fitness for binding NBS DNA for `QMRN` equal to or greater than 0.4?
Condition met

For this variant, is measured one-hybrid fitness for binding NBS DNA 0.4 or higher? `RLTN`
Condition not met

Say whether `DRRR` shows one-hybrid fitness for binding NBS DNA of 0.4 or more.
Condition not met

Hello, I need to know if `QACT` has measured one-hybrid fitness for binding NBS DNA not below 0.4. Thanks!
Condition not met

Is one-hybrid fitness for binding NBS DNA for `DRYR` at or above 0.4?
Condition not met

I'd appreciate it if you could say whether `QILT` has one-hybrid fitness for binding NBS DNA at least equal to 0.4.
Condition not met

Please check the record `DRFC` and state if its one-hybrid fitness for binding NBS DNA is at or above 0.4.
Condition not met

Reported one-hybrid fitness for binding NBS DNA reaches at least 0.4 for `QRCT` ?
Condition met

Would you say `RASN` shows one-hybrid fitness for binding NBS DNA at minimum 0.4?
Condition not met

Entry `RSSD` : is its one-hybrid fitness for binding NBS DNA no less than 0.4?
Condition not met

Quick check: does `MSYR` have one-hybrid fitness for binding NBS DNA greater than or equal to 0.4?
Condition not met

# bool: one-hybrid fitness for binding NBS DNA of `TIRA` >= 0.4
Condition not met

In plain terms: is recorded one-hybrid fitness for binding NBS DNA at least 0.4 for `QRLM` ?
Condition not met

Identify whether the reported one-hybrid fitness for binding NBS DNA of the following variant is 0.4 or greater: `QMDN`
Condition not met

Hello, I need to know if `NRQR` has measured one-hybrid fitness for binding NBS DNA not below 0.4. Thanks!
Condition not met

Check the entry `QRRT` : does one-hybrid fitness for binding NBS DNA equal or exceed 0.4?
Condition met

Exam item: decide whether the reported one-hybrid fitness for binding NBS DNA for `NRRR` is at least 0.4.
Condition not met

Record `DCSG` ; criterion: one-hybrid fitness for binding NBS DNA no lower than 0.4. Met?
Condition not met

Confirm if one-hybrid fitness for binding NBS DNA reported for the variant `RMTL` is 0.4 or above.
Condition not met

Determine whether measured one-hybrid fitness for binding NBS DNA meets or exceeds 0.4 for `QMYN`
Condition not met

Does the variant `QRRE` have recorded one-hybrid fitness for binding NBS DNA that is 0.4 or more?
Condition not met

Is the recorded value of one-hybrid fitness for binding NBS DNA equal to or greater than 0.4 for this variant? `RKTC`
Condition not met

Has `IEFV` a recorded one-hybrid fitness for binding NBS DNA greater than or equal to 0.4?
Condition not met

Quick check, one-hybrid fitness for binding NBS DNA >= 0.4? `QMRF`
Condition not met

API: above_or_equal(metric=one-hybrid fitness for binding NBS DNA, cutoff=0.4) for item `IGHS`
Condition not met

Could you please find out whether `RASS` has one-hybrid fitness for binding NBS DNA that meets 0.4 or exceeds it?
Condition met

Quick check, one-hybrid fitness for binding NBS DNA >= 0.4? `QRLT`
Condition met
